Listed molecules paired with reported Population Mitotic Cells (%)
Test system: U2OS
Assay: Multiplex assay against U2OS
Type: toxicity, cell-based
Conditions: human, 48 h, 1 µM, compound concentration 1 uM, replicate 2
Numbers only here, please. The scale is %.

Example molecules with recorded Population Mitotic Cells (%):
molecule: NCCc1cn(S(=O)(=O)c2c(Cl)nc3sccn23)c2ccccc12.O=C(O)C(=O)O
Population Mitotic Cells (%): 14
//
molecule: Cc1c(CC(=O)O)c2cccnc2n1Cc1ccc(S(C)(=O)=O)cc1C(F)(F)F
Population Mitotic Cells (%): 9
//
molecule: CC(/C=C1\SC(=S)N(CCCC(=O)Nc2ccc(C(=O)O)c(O)c2)C1=O)=C\c1ccccc1
Population Mitotic Cells (%): 21
//
molecule: Br.CS(=O)(=O)Nc1c(O)ccc2c1CCCC2C1=NCCN1 (centres undefined)
Population Mitotic Cells (%): 18
//
molecule: O=C(NCCN1CCC(n2c(=O)[nH]c3cc(Cl)ccc32)CC1)c1ccc(F)cc1 [HALOPEMIDE]
Population Mitotic Cells (%): 4
//
molecule: O=C(CCCc1ccccc1)Nc1nc2ccccc2c(=O)s1
Population Mitotic Cells (%): 12

// query Population Mitotic Cells (%) value for entry CC[C@@H](C)Nc1nc(C)nc2c(-c3ccc(OC)nc3C)c(C)nn12
8

// query Population Mitotic Cells (%) value for entry CN(C)C(=O)Cn1cc(-c2ccc(-c3cncc4ccccc34)cc2)cn1
11

// query Population Mitotic Cells (%) value for entry Cc1noc(-c2ccc(-c3ccc(CC(=O)O)cc3)cc2)c1NC(=O)O[C@H](C)c1ccccc1Cl
13
